Phage binding ELISA, Anti-PSMA Fab signal for assorted binders
Target: T1, Anti-PSMA Fab (SEQ ID NOs: 19, 20)
T1 construct: Biotinylated and captured on neutravidin coated plates in the phage ELISA; also called 006 PSMA Fab
Assay: phage ELISA; biotinylated PSMA Fab on neutravidin plate, clonal phage supernatant, anti-M13-HRP detection;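 further: wells were preincubated with blocking buffer containing PSMA antigen or with blocking buffer only, then phage supernatant was added without washing for a brief incubation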
Where no end group is shown, it is not given here.
measured-property: Phage binding ELISA, Anti-PSMA Fab signal

{"binder": "MGKWCIPPWMCVVD (tested as crude phage supernatant) [Phage-1995]", "observed": 1.86}
{"binder": "GSNWCKPAWMCEIM (tested as crude phage supernatant) [Phage-1996]", "observed": 1.86}
{"binder": "VEKWCTPPWMCAGW (cysteine pairing not given here; also: displayed as fusion to phage pIII, tested as crude phage supernatant) [Phage-1987]", "observed": 1.87}
{"binder": "LMKWCIPEWMCVDS (tested as crude phage supernatant) [Phage-1990]", "observed": 1.87}
{"binder": "IFEWCVPAWMCESR (tested as crude phage supernatant) [Phage-1983]", "observed": 1.88}
{"binder": "LENWCIPRWMCHGF (tested as crude phage supernatant) [Phage-1985]", "observed": 1.88}
{"binder": "EVKWCTPPWMCMFD (tested as crude phage supernatant) [Phage-1993]", "observed": 1.86}
